assay.readout: melting point

Suppose we examine the compound COc1cccc(OC(=O)NC2C(=O)N(CCC(C)C)c3cc(Cl)c(Cl)cc3N(c3ccccc3)C2=O)c1 (stereo not given) ; what melting point value has been reported? 139 to 140 °C

Would you kindly repeat that for CC1COC(c2ccccc2)(c2ccc(N)c([N+](=O)[O-])c2)O1 (stereo not given) ? 155 °C

Would you kindly repeat that for Cc1ccc(S(=O)(=O)Nc2ccc([N+](=O)[O-])cc2C)cc1 ? 173 to 174 °C

Would you kindly repeat that for COc1ccc(S(=O)(=O)N2C(=O)C(N)(c3ccccc3OC)c3cc(Cl)ccc32)c(OC)c1 (stereo not given) ? 172 to 173 °C

Would you kindly repeat that for CCCCCCCCCCCCCCOc1cc(OCCCCCCc2cccc(OCc3ccccc3)c2OCc2ccccc2)cc(C(=O)OC)c1 ? 56 to 58 °C
